# System: MDA-MB-231 breast
# PROTOCOL: NCI-60 one-dose screen, 48 h (100 = growth as untreated, 0 = no growth, -100 = all killed)
# EXPERIMENTAL SETUP: 10 µM unless noted
Compounds without any hit were thinned out: in the full panel of roughly 83,000, 20% have a hit.
READOUT TYPE: growth (%)
Report only the number, with the unit % understood.

IN: Retrieve growth on MDA-MB-231 breast; query "COc1ccc2nc3cc(Cl)ccc3c(Nc3ccc(O)cc3)c2c1"
OUT: 84.4

IN: Write down the reported growth (system: MDA-MB-231 breast) of "Cc1ccc(-c2cn(C/C=C3\C=CN(S(=O)(=O)c4ccccc4)CC3)nn2)cc1"
OUT: 97.5

IN: Under MDA-MB-231 breast: report growth of "CCn1cc(-c2ccnc(NCCNS(=O)(=O)c3ccc(Br)cc3)c2)c(-c2cccc(OC)c2)n1" .
OUT: 80.8

IN: Name the value of growth reported for "COc1ccc(OC)c(NC=O)c1" when tested on MDA-MB-231 breast.
OUT: 106

IN: Enter recorded growth with MDA-MB-231 breast for "CCOc1cc(NC(=O)c2ccccc2)c(OCC)cc1N" here.
OUT: 104

IN: System MDA-MB-231 breast. Read-out growth. Item "COc1cc2c(c(OC)c1OC)-c1ccc(NNC(N)=S)c(=O)cc1[C@@H](NC(C)=O)CC2" . Report value.
OUT: 20

* * *

# System: A549/ATCC NSCLC
# PROTOCOL: NCI-60 one-dose screen, 48 h (100 = growth as untreated, 0 = no growth, -100 = all killed)
# EXPERIMENTAL SETUP: 10 µM unless noted
This is part of a sample that, as a whole, favours compounds with a hit. Of some 83,000 tested, about 20% had one in any assay.
I'd be grateful if you could share measured growth for these entries.
Give the number; % is assumed, so skip it.

IN: Report growth on A549/ATCC NSCLC for this entry: O=C1CC(c2ccccc2)Cc2nc3ccc(Cl)cc3cc21 (stereo not given)
OUT: 23.3

IN: Consider the compound "CCCCOC(=O)c1c(C)[nH]c(/C=C2\N=C(c3ccc[nH]3)C=C2OC)c1C" tested on A549/ATCC NSCLC; state its growth.
OUT: -9.07

IN: Fetch value of growth on A549/ATCC NSCLC for "C=CCCCCCCCCC(=O)OC(C)C" .
OUT: 99.2

IN: Identify measured growth obtained with A549/ATCC NSCLC for "CCOC(=O)c1cnc2ccc(Br)cc2c1Nc1cccc(S(N)(=O)=O)c1" .
OUT: 101

IN: Enter growth (test system A549/ATCC NSCLC) for CCN(CC)c1ccc2cc(C(Nc3ccc(Br)c(C(F)(F)F)c3)c3nnnn3C(C)(C)C)c(=O)oc2c1 (stereo not given)
OUT: 86.3

IN: Supply growth measured with A549/ATCC NSCLC for "COc1ccc(N(c2nc(-c3ccc([N+](=O)[O-])cc3)cs2)C(C)C)cc1" .
OUT: 85.3

IN: Jot down growth (A549/ATCC NSCLC) of O=C1Cc2c(sc3c(F)cccc23)C(c2ccccc2[N+](=O)[O-])N1 (stereo not given) .
OUT: 106

IN: Enter measured growth, system A549/ATCC NSCLC, for the compound shown: "CN(Cc1cccc(C(F)(F)F)c1)C(=O)[C@@H](CC(=O)N1CCC(N2CCCCC2)CC1)N1C(=O)[C@@H](N2C(=O)OC[C@@H]2c2ccccc2)[C@H]1/C=C/c1ccccc1"
OUT: 80.6

IN: Enter recorded growth with A549/ATCC NSCLC for "Cc1cc(C)c(O)c(CNCCCCCCNCc2cc(C)cc(C)c2O)c1" here.
OUT: 32

IN: Please report growth with A549/ATCC NSCLC for item "O=C(CCN1CCCCC1)c1ccc(Cl)cc1" .
OUT: 109

IN: Report growth under test system A549/ATCC NSCLC for "O=C(Nc1ccc(C(=O)/C=C/c2ccc(N3CCOCC3)cc2)cc1)Nc1ccc([N+](=O)[O-])cc1" .
OUT: 81.3

IN: Fill in: growth on A549/ATCC NSCLC, entry "CCCCCn1sc(=O)n(Cc2ccc(CNC(=O)OCc3ccc4cccc(O)c4n3)cc2)c1=O"
OUT: 20.6

IN: Under A549/ATCC NSCLC: report growth of CCOC(=O)C(C(C)=O)c1nc2sc3cc(Cl)c(Cl)cc3n2c(=O)c1C#N (stereo not given) .
OUT: 108

IN: Send back A549/ATCC NSCLC growth of "COc1cc(NCc2ccccc2O)c2ncccc2c1" only.
OUT: 110

IN: Write down the reported growth (system: A549/ATCC NSCLC) of CCCCC(CCCCCC(CCCC)C1NC(C)Cc2cc(OC)c(OC)cc21)C1NC(C)Cc2cc(OC)c(OC)cc21 (stereo not given)
OUT: -80.9

IN: Give growth only, for "Cc1cc(C)nc(SCC(=O)Nc2cccc(N=Cc3ccccc3O)c2)n1" , using A549/ATCC NSCLC data.
OUT: 101

IN: Give growth for "Cc1nn(-c2ccccc2)c(N2CCOCC2)c1-c1nc2ccc([N+](=O)[O-])cc2[nH]1" tested on A549/ATCC NSCLC.
OUT: 94

IN: Given "O=C(Nc1cccc(C2=NCCN2)c1)c1cccc(C(=O)Nc2cccc(C3=NCCN3)c2)c1" , report its growth on A549/ATCC NSCLC.
OUT: 102

IN: Enter measured growth, system A549/ATCC NSCLC, for the compound shown: "CCN(CC)c1ccc(/C=C/C=C2\NC(=O)NC2=O)cc1"
OUT: 37.2

IN: Please report the measured growth for "CCCOc1ccc(-c2nc(-c3ccc(N)cc3)cs2)cc1" tested on A549/ATCC NSCLC.
OUT: 93.5

* * *

# System: U251 CNS
# PROTOCOL: NCI-60 one-dose screen, 48 h
# EXPERIMENTAL SETUP: 10 µM unless noted
About 83,000 compounds went through this panel and 20% of them were active in at least one assay; those are over-represented in the sample as a whole. Calls of active or inactive are those of the source. Rule for the calls: active = growth percent below 10; inactive = the rest.
The categories you may choose from are 1.0 = active, 0.0 = inactive

IN: Check the results log: what was the call for "c1coc2occoc=2o1" ?
OUT: 0.0

IN: Field: outcome | Entry: "O=C1CN(Cc2ccc(C(=O)NO)cc2)C(=O)[C@@H](Cc2ccccc2)N1"
OUT: 0.0

IN: Would you mind telling me which call this test gave "O=C1/C(=C\c2cccn2Cc2ccccc2)c2ccccc2N1c1c(Cl)cccc1Cl" ?
OUT: 0.0

IN: Hi, do you know how "CC(C)(C)OC(=O)N1C=C/C(=C\Cn2cc(-c3ccccc3)nn2)CC1" came out in this test?
OUT: 0.0

IN: Hello, I am checking results. What call was entered for "COc1ccc2nc3cc(Cl)ccc3c(Nc3ccc(O)cc3)c2c1" ?
OUT: 0.0

IN: Test call for this compound, please: CCN(CC)c1ccc2cc(C(Nc3ccc(C)cc3)c3nnnn3C(C)(C)C)c(=O)oc2c1 (stereo not given)
OUT: 0.0

IN: Could you kindly confirm the outcome this assay logged for COc1cc2c(c(OC)c1)C1c3cc(OC)ccc3NC(=O)N1CC2 (stereo not given) ?
OUT: 0.0

IN: Would you mind telling me which call this test gave "CCCN1CC(c2ccc(OC)c(OC)c2)=C(c2cn(C(=O)OCC)c3ccccc23)C1=O" ?
OUT: 0.0

IN: I would be grateful if you could indicate the recorded call for "CC(C)(C)c1cc(C(=O)Nc2cc3ccccc3cc2C(=O)NCCN)cc(C(C)(C)C)c1" .
OUT: 1.0

IN: Recorded test call requested for "CC(=O)Nc1ccc2nc3ccc(NC(C)=O)cc3[n+](-c3ccccc3)c2c1"
OUT: 0.0

IN: Outcome? "COc1ccc(-c2cc(-c3ccc(Cl)cc3)nc(SCCCCCCC(=O)NO)n2)cc1"
OUT: 0.0

IN: How did this test come out for "CO[C@H]1CC[C@@]2(C)C(=CC[C@H]3[C@@H]4C[C@H](O)C[C@@]4(C)CC[C@@H]32)C1" ?
OUT: 0.0

IN: Please indicate how the test categorized "CCc1cccc(Cl)c1" .
OUT: 0.0

IN: # lookup: test call for "Cc1cnc([C@]23CC[C@@H](C)[C@H](C)[C@H]2C2=CC[C@@H]4[C@@]5(C)Cc6c([nH]c7ccccc67)C(C)(C)[C@@H]5CC[C@@]4(C)[C@]2(C)CC3)o1"
OUT: 0.0

IN: Given "O=C(COc1cccc(/C=C2\Oc3ccccc3C2=O)c1)c1ccc([N+](=O)[O-])cc1" , state the outcome it received in this test.
OUT: 0.0

IN: GET /call?item= "CCCOc1ccc(-c2nc(-c3ccc(N)cc3)cs2)cc1" returns the recorded outcome of this test.
OUT: 0.0

IN: Recorded test call requested for "CCCSc1nc(N)nc2nc[nH]c12"
OUT: 0.0

IN: Given "O=C(Nc1cc(F)cc2cccnc12)c1cnc(N2CCNCC2)cn1" , state the outcome it received in this test.
OUT: 0.0

IN: Name the outcome recorded for CCOC(=O)c1nn(C2CCCCO2)c2ccc(NC(=O)CN3CCOCC3)cc12 (stereo not given) in the assay.
OUT: 0.0

IN: Hey, what did the test say about "COCCCNc1nc(NC(=O)c2cc(OC)cc(OC)c2)cc(-c2cccnc2)n1" ?
OUT: 0.0

IN: Assay outcome for "Cc1cc(C)c(O)c(CNCCCNCc2cc(C)cc(C)c2O)c1" : what was it?
OUT: 0.0

IN: Call for entry "C=C(C)[C@@H]1CC[C@]2(COC(=O)c3ccccc3C(=O)O)CC[C@]3(C)[C@H](CC[C@@H]4[C@@]5(C)CC[C@H](OC(=O)c6ccccc6C(=O)O)C(C)(C)[C@@H]5CC[C@]43C)[C@@H]12" :
OUT: 1.0

IN: // return assay outcome for "Cc1ccc(-c2cc(O)c(-c3ccc(C)cc3C)cc2O)c(C)c1"
OUT: 0.0

IN: GET /call?item= "C=C(C)[C@@H]1CC[C@]2(C)[C@H](CC[C@@H]3[C@@H]([C@@](C)(O)CCC=C(C)C)CC[C@]32C)[C@@]1(C)CCC(=O)O" returns the recorded outcome of this test.
OUT: 1.0

IN: Test call for this compound, please: "CSc1nc(N)c(N=Nc2ccc(S(=O)(=O)Nc3nnc(C)s3)cc2)c(=O)[nH]1"
OUT: 0.0

IN: Answer briefly: the call reported for "C[n+]1cccc(NC(=O)c2ccc3ccc4ccc(C(=O)Nc5ccc[n+](C)c5)nc4c3n2)c1" in this assay.
OUT: 0.0

IN: Check the results log: what was the call for "CCOC(=O)n1cc(C2=C(c3ccc(OC)c(OC)c3)COC2=O)c2ccccc21" ?
OUT: 0.0

IN: What did this assay record as the result for O=C1CC(c2ccccc2)Cc2nc3ccc(Cl)cc3cc21 (stereo not given) ?
OUT: 0.0

IN: Record lookup: outcome of this test for "CC1(C)CC[C@]2(C(=O)OC(=O)[C@]34CCC(C)(C)C[C@@H]3C3=CC[C@@H]5[C@@]6(C)CCC(=O)C(C)(C)[C@@H]6CC[C@@]5(C)[C@]3(C)CC4)CC[C@]3(C)C(=CC[C@@H]4[C@@]5(C)CCC(=O)C(C)(C)[C@@H]5CC[C@]43C)[C@H]2C1" ?
OUT: 0.0

IN: Please state the recorded outcome for this compound: "Fc1ccc(NC(=S)c2ccccc2)cc1"
OUT: 0.0

IN: Per the records of this test, what outcome belongs to "Cc1cc(SC#N)ncn1" ?
OUT: 0.0

IN: Record request — test call for "Nc1ccc(NC(=O)c2ccccc2)c2c1C(=O)c1ccccc1C2=O"
OUT: 0.0

IN: How did this test come out for "Cn1cc(-c2noc(-c3cn(C)c4ncc(F)cc34)n2)c2cc(Cl)ccc21" ?
OUT: 0.0

IN: Which outcome was assigned to "COc1cc2c(c(OC)c1OC)-c1cc(I)c(O)cc1[C@@H](NC(C)=O)CC2" in this test?
OUT: 1.0

IN: State the result this test recorded for "O=S(=O)(/N=c1/n(-c2ccccc2)nc2n1CCN2C1=NCCN1)c1ccc(-c2ccccc2)cc1" .
OUT: 0.0

IN: Write down the call the test reported for this compound. Item: O=C1Cc2c(sc3c(F)cccc23)C(c2ccccc2[N+](=O)[O-])N1 (stereo not given)
OUT: 0.0

IN: What call does the record list for "CCOC(=O)c1cc(C#N)n2ncc3ccccc3c12" ?
OUT: 0.0

IN: Please state the recorded outcome for this compound: "c1nc(N2CCOCC2)c2[nH]ccc2n1"
OUT: 0.0

IN: Give the logged outcome of this assay for the following compound: CCCCN(CCCC)CC(O)c1ccc(OCc2ccccc2)c2ccccc12 (stereo not given)
OUT: 0.0

IN: What is the recorded call for this compound in the test? COc1ccc(C2CC(c3ccc4ccccc4c3)=NN2c2nc(O)c(C3=c4cc(OC)ccc4=NC3=O)s2)cc1 (stereo not given)
OUT: 1.0
